Test system: crabgrass, large
Test: Test A pre-/postemergence herbicide test
Assay type: in vivo, Digitaria sanguinalis
Details: preemergence, 500 g ai/ha; 0 to 100 scale
Observable: Plant response rating, Crabgrass, Large

compound="O=C1NCC(c2ccc(F)c(F)c2)C1C(=O)Nc1ccc[nH]c1=O (racemic)" observable="Plant response rating, Crabgrass, Large" value_observed=0
compound="O=C1NCC(c2ccc(F)c(F)c2)C1C(=O)Nc1cccc(F)c1C(F)(F)F (centres unmarked)" observable="Plant response rating, Crabgrass, Large" value_observed=90
compound="O=C1NCC(c2cccc(C(F)(F)F)c2)C1C(=O)Nc1ccccc1F (racemic)" observable="Plant response rating, Crabgrass, Large" value_observed=90
compound="O=C1NCC(c2ccc(F)c(F)c2)C1C(=O)Nc1cccc2c1OC(F)(F)O2 (centres unmarked)" observable="Plant response rating, Crabgrass, Large" value_observed=90

Turning to the following compound.
Query string: Bench note: what Plant response rating, Crabgrass, Large did O=C1NCC(c2ccccc2)C1C(=O)Nc1ccccc1C(F)(F)F (racemic) show?
Result string: 90

---

# Plant response rating, Rice values compiled below
Test system: rice
Experiment: Test C flooded paddy test
Type: in vivo, Oryza sativa
Conditions: Flood, 31 g ai/ha; scale of 0 to 100 where 0 is no effect and 100 is complete control; 13 to 15 days
I only need the number, thanks.

# count of solved cases: 4
compound="CC1NC(=O)C(C(=O)Nc2ccccc2C(F)(F)F)C1c1ccc(F)c(F)c1 (mixture of isomers)" observable="Plant response rating, Rice" value_observed=0
compound="O=C1NCC(c2cccc(OC(F)F)c2)C1C(=O)Nc1ccccc1F (stereo not drawn)" observable="Plant response rating, Rice" value_observed=0
compound="O=C1NCC(c2cccc(F)c2)C1C(=O)Nc1ccccc1F (racemic)" observable="Plant response rating, Rice" value_observed=0
compound="CC1NC(=O)C(C(=O)Nc2ccccc2F)C1c1ccc(F)c(F)c1 (mixture of isomers)" observable="Plant response rating, Rice" value_observed=0

Query string: Checklist item: Plant response rating, Rice tested on rice, entry O=C1NCC(c2ccc(C(F)(F)F)nc2)C1C(=O)Nc1cccc(F)c1F (racemic) , value?
Result string: 0

Query string: Query O=C1NCC(c2ccc(F)c(F)c2)C1C(=O)Nc1cccc(F)c1 (racemic) next
Result string: 0

---

# Plant response rating, Barnyardgrass values compiled below
Tested on: barnyardgrass
Test: Test C pre-/postemergence herbicide test
Type: in vivo, Echinochloa crus-galli
Conditions: Postemergence, 31 g ai/ha; scale 0 to 100 (0 no effect, 100 complete control)
Description: […]
I only need the number, thanks.

molecule="O=C1NCC(c2cccc(OC(F)F)c2)C1C(=O)Nc1cccc(F)c1F (centres unmarked)" target_or_test_system=barnyardgrass value_observed=0
molecule="O=C1NCC(c2cccc(C(F)(F)F)c2)C1C(=O)Nc1ccc(F)c(F)c1F (centres unmarked)" target_or_test_system=barnyardgrass value_observed=25
molecule="O=C1NCC(c2cccc(OC(F)F)c2)C1C(=O)Nc1ccc(F)c(F)c1F (centres unmarked)" target_or_test_system=barnyardgrass value_observed=10
molecule="CN1CC(c2ccc(F)c(F)c2)C(C(=O)Nc2ccccc2F)C1=O (centres unmarked)" target_or_test_system=barnyardgrass value_observed=0

Query string: Bench note: what Plant response rating, Barnyardgrass did O=C1NCC(c2cccc(Cl)c2)C1C(=O)Nc1cccc(F)c1F (racemic) show?
Result string: 30

---

# Plant response rating, Ragweed values compiled below
Test system: ragweed
Experiment: Test C pre-/postemergence herbicide test
Format: in vivo, Ambrosia elatior
Settings: Preemergence, 125 g ai/ha; scale 0 to 100 (0 no effect, 100 complete control)
I only need the number, thanks.

# count of solved cases: 4
compound="O=C1NCC(c2cc(F)c(F)c(F)c2)C1C(=O)Nc1ccccc1F (racemic)" value_observed=0
compound="O=C1NCC(c2ccc(F)cc2)C1C(=O)Nc1ccccc1F (racemic)" value_observed=0
compound="O=C1NCC(c2cccc(Br)c2)C1C(=O)Nc1cccc(F)c1F (centres unmarked)" value_observed=30
compound="O=C1NCC(c2cccc(C(F)(F)F)c2)C1C(=O)Nc1cccc(F)c1F (centres unmarked)" value_observed=30

Turning to the following compound.
Query string: Bench note: what Plant response rating, Ragweed did O=C1NCC(c2cccc(OC(F)F)c2)C1C(=O)Nc1ccccc1F (centres unmarked) show?
Result string: 10

---

# Blackgrass plant response rating (0 to 100 scale, 0 is no effect, 100 is complete control) values compiled below
Tested on: blackgrass
Test: Test A postemergence herbicide test
Format: in vivo, Alopecurus myosuroides
Conditions: 500 g ai/ha
I only need the number, thanks.

Query string: Bench note: what Blackgrass plant response rating (0 to 100 scale, 0 is no effect, 100 is complete control) did CCc1cccc(C2CNC(=O)C2C(=O)Nc2ccc(F)c(F)c2F)c1 (racemic) show?
Result string: 60

Query string: Query O=C1NCC(c2ccc(-c3ccccc3C(F)(F)F)cc2)C1C(=O)Nc1cccc(F)c1F (stereo not shown) next
Result string: 0

Query string: Query O=C1NCC(c2ccc(C(F)(F)F)cc2)C1C(=O)Nc1ccc(F)c(F)c1F (stereo not shown) next
Result string: 50

Query string: Query O=C1NCC(c2ccc(Cl)cc2)C1C(=O)Nc1ccccc1F (stereo not shown) next
Result string: 50

---

System: oilseed rape
Assay: Test C pre-/postemergence herbicide test
Assay type: in vivo, Brassica napus
Details: Postemergence, 62 g ai/ha; scale 0 (no effect) to 100 (complete control)
Description: […]
Observable: Plant response rating, Oilseed Rape
I only need the number, thanks.

# count of solved cases: 5
compound="O=C1NCC(c2cccc(OC(F)F)c2)C1C(=O)Nc1cccc(F)c1F (stereo not drawn)" observable="Plant response rating, Oilseed Rape" value_observed=0
compound="O=C1NCC(c2cccc(C(F)(F)F)c2)C1C(=O)Nc1ccc(F)cc1F (racemic)" observable="Plant response rating, Oilseed Rape" value_observed=0
compound="O=C1NCC(c2ccc(F)cc2)C1C(=O)Nc1cccc(F)c1F (racemic)" observable="Plant response rating, Oilseed Rape" value_observed=0
compound="O=C1NCC(c2cccc(Cl)c2)C1C(=O)Nc1cccc(F)c1F (racemic)" observable="Plant response rating, Oilseed Rape" value_observed=5
compound="O=C1NCC(c2cccc(C(F)(F)F)c2)C1C(=O)Nc1cccc(Cl)c1F (stereo not drawn)" observable="Plant response rating, Oilseed Rape" value_observed=0

Query string: Checklist item: Plant response rating, Oilseed Rape tested on oilseed rape, entry O=C1NCC(c2ccc(C(F)(F)F)cc2)C1C(=O)Nc1ccc(F)c(F)c1F (stereo not drawn) , value?
Result string: 50

---

Test system: blackgrass
Assay: Test C pre-/postemergence herbicide test
Format: in vivo, Alopecurus myosuroides
Conditions: Preemergence, 62 g ai/ha; scale 0 to 100 (0 no effect, 100 complete control)
Text: […]
Observable: Blackgrass plant response rating

# count of solved cases: 5
compound="CN1CC(c2cccc(C(F)(F)F)c2)C(C(=O)Nc2ccccc2F)C1=O (stereo not shown)" value_observed=70
compound="O=C1NCC(c2ccc(C(F)(F)F)nc2)C1C(=O)Nc1cccc(F)c1F (racemic)" value_observed=0
compound="O=C1NCC(c2cccc(Br)c2)C1C(=O)Nc1ccccc1F (stereo not shown)" value_observed=0
compound="O=C1NCC(c2cccc(OC(F)F)c2)C1C(=O)Nc1ccc(F)c(F)c1F (stereo not shown)" value_observed=50
compound="O=C1NCC(c2cccc(Cl)c2)C1C(=O)Nc1cccc(F)c1F (racemic)" value_observed=60

Query string: Bench note: what Blackgrass plant response rating did O=C1NCC(c2ccc(C(F)(F)F)nc2)C1C(=O)Nc1ccccc1F (racemic) show?
Result string: 0

Query string: Query O=C1NCC(c2cccc(C(F)(F)F)c2)C1C(=O)Nc1ccccc1Cl (stereo not shown) next
Result string: 45

Query string: Query CN1CC(c2ccc(C(F)(F)F)cc2)C(C(=O)Nc2ccccc2F)C1=O (stereo not shown) next
Result string: 60

Query string: Query O=C1NCC(c2cccc(C(F)(F)F)c2)C1C(=O)Nc1cccc(Cl)c1F (stereo not shown) next
Result string: 0

Query string: Query O=C1NCC(c2cccc(OC(F)F)c2)C1C(=O)Nc1cccc(F)c1F (stereo not shown) next
Result string: 30

---

Tested on: barnyardgrass
Test: Test A pre-/postemergence herbicide test
Format: in vivo, Echinochloa crus-galli
Details: Postemergence, 500 g ai/ha; 0 to 100 scale (0 no effect, 100 complete control)
Observable: Plant response rating, Barnyardgrass
I only need the number, thanks.

# count of solved cases: 5
molecule="O=C1NCC(c2cccc(C(F)(F)F)c2)C1C(=O)Nc1cccc(Cl)c1F (centres unmarked) [Compound 344]" target_or_test_system=barnyardgrass observable="Plant response rating, Barnyardgrass" value_observed=90
molecule="O=C1NCC(c2ccc(C(F)(F)F)c(F)c2)C1C(=O)Nc1ccccc1C(F)(F)F (racemic)" target_or_test_system=barnyardgrass observable="Plant response rating, Barnyardgrass" value_observed=50
molecule="O=C1NCC(c2ccc(C(F)(F)F)nc2)C1C(=O)Nc1ccccc1C(F)(F)F (racemic)" target_or_test_system=barnyardgrass observable="Plant response rating, Barnyardgrass" value_observed=80
molecule="O=C1NCC(c2ccccc2)C1C(=O)Nc1ccccc1F (racemic)" target_or_test_system=barnyardgrass observable="Plant response rating, Barnyardgrass" value_observed=80
molecule="NC1=NCC(c2ccc(F)c(F)c2)C1C(=O)Nc1ccccc1F (centres unmarked)" target_or_test_system=barnyardgrass observable="Plant response rating, Barnyardgrass" value_observed=90

Query string: Bench note: what Plant response rating, Barnyardgrass did O=C1NCC(c2ccc(F)c(F)c2)C1C(=O)Nc1cccc(F)c1 (racemic) show?
Result string: 90

Query string: Query O=C1NCC(c2cccc(C(F)(F)F)c2)C1C(=O)Nc1cccc(F)c1F (centres unmarked) next
Result string: 90

Query string: Query O=C1NCC(c2cccc(Br)c2)C1C(=O)Nc1cccc(F)c1F (centres unmarked) next
Result string: 90
